Where do these numbers come from? They come from patent US7803825B2.

Reported pKi by item:
target.entity: histamine-3 (H3) receptor (Homo sapiens, UniProt Q9Y5N1)
Sequence (Q9Y5N1 whole entry): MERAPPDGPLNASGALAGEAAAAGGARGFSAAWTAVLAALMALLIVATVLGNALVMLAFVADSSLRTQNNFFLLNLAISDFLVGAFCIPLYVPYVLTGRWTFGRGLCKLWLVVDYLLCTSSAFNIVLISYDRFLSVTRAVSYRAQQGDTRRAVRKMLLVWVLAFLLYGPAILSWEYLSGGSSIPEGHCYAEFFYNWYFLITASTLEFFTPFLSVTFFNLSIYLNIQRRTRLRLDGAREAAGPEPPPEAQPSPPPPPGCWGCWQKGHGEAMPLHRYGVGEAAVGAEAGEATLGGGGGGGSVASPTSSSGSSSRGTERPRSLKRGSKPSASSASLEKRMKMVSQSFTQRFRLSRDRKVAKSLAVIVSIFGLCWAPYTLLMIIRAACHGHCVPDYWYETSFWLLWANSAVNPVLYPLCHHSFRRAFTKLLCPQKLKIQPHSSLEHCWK
measurement.protocol: Methyl Histamine Binding in Human Histamine-3 Receptor Cell Line
condition.label: membranes of stably transfected HEK293T cells, radioligand 1 nM, Ki from IC50 by Cheng-Prusoff
pKi: −log10 of the molar value. Structures can show the parent of a compound that is named as a salt.

Completed entries (count: 8):
{"compound": "c1ccc2c(c1)ncn2-c1ccc(-c2nc(CN3CCOCC3)co2)cc1", "readout.value": "< 7.00"}
{"compound": "c1ccc2c(c1)ncn2Cc1ccc(-c2ncc(CN3CCCCC3)o2)cc1", "readout.value": "< 7.00"}
{"compound": "Cn1c(CN2CCCC2)cnc1-c1ccc(C#N)cc1 [Example 144, fumarate salt]", "readout.value": "< 7.00"}
{"compound": "CC1CCN(Cc2coc(-c3ccc(Cn4cnc5ccccc54)cc3)n2)CC1", "readout.value": "≥ 8.00"}
{"compound": "C[C@@H]1CCCN1Cc1cnc(-c2ccc(Cn3cnc4ccccc43)cc2)o1", "readout.value": "7.30 to 7.60"}
{"compound": "CCN(CC)Cc1coc(-c2ccc(Cn3cnc4ccccc43)cc2)n1", "readout.value": "≥ 8.00"}
{"compound": "c1ccc(-c2nc3ccccc3n2Cc2ccc(-c3nc(CN4CCCCC4)co3)cc2)cc1", "readout.value": "≥ 8.00"}
{"compound": "C[C@H]1CCCN1Cc1coc(-c2ccc(-c3nc4ccccc4n3CCC3CCCCC3)cc2)n1", "readout.value": "7.30 to 7.60"}

Query: pKi; subject: CC1CCCN1Cc1csc(-c2ccc(Cn3cnc4ccccc43)cc2)n1 (stereo not drawn)
≥ 8.00

Another compound to check: C[C@H]1CCCN1Cc1coc(-c2ccc(Cn3ncc4ccc(F)cc43)cc2)n1
7.60 to 8.00

Another compound to check: c1ccc2c(c1)nc(-c1ccc(-c3nc(CN4CCCC4)co3)cc1)n2CC1CCC1
7.60 to 8.00

Another compound to check: FC(F)(F)c1nc2ccccc2n1Cc1ccc(-c2nc(CN3CCCCCC3)co2)cc1
7.60 to 8.00

Another compound to check: CC1CCCCN1Cc1coc(-c2ccc(-n3cnc4ccccc43)cc2)n1 (stereo not drawn)
≥ 8.00

Another compound to check: c1ccc2c(c1)ncn2Cc1ccc(-c2nc(CN3CCCCCC3)co2)cc1
≥ 8.00

Another compound to check: CC1CCCCN1Cc1coc(-c2ccc(Cn3cnc4ccccc43)cc2)n1 (stereo not drawn)
7.00 to 7.30
